# system: Neutrophil collagenase (Homo sapiens)
# Sequence (P22894 whole entry): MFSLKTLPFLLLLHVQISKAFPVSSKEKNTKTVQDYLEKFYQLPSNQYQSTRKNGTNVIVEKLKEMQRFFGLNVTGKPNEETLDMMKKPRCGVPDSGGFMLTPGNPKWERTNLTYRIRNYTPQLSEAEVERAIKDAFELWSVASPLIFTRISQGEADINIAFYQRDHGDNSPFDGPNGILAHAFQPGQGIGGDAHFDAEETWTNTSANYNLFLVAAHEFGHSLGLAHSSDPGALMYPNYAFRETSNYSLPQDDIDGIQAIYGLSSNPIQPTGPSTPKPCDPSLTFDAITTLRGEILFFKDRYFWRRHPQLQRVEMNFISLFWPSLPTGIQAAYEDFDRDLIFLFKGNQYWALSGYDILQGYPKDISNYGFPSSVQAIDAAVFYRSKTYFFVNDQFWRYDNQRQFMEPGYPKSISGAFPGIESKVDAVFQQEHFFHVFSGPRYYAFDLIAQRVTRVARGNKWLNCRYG
# protocol_details: Inhibition of human recombinant MMP-8 (Phe21 to Gly467 residues) using MOCAc-Pro-Leu-Gly-Leu-A2pr(Dnp)-Ala-Arg-NH2 as fluorogenic substrate preincubated for 15 mins followed by substrate addition by fluorescence based analysis
pIC50: −log10 of the molar value. *1 amine or outer side, *2 acyl side, *3 side chain or, on linkers, in order; H or OH if unused. Where a SMILES comes first, the peptide text is derived from it. [ ]: non-standard residue; d: D form. The star is where a group is joined. Benzenesulfonyl(4-Cl,3-CF3) = O=S(=O)(c1ccc(Cl)c(C(F)(F)F)c1)*; γGlu = O=C(O)[C@H](CCC(=O)[*:2])N[*:1]; β3hP = O=C(O)C[C@@H]1CCCN1
measured_quantity: pIC50

compound: CSCC[C@H](NC(=O)[C@H](CC(C)C)NC(=O)CNC(=O)CC[C@H](NS(=O)(=O)c1ccc(Cl)c(C(F)(F)F)c1)C(=O)O)C(N)=O
pIC50: < 4.00

Fill in: pIC50 of CC(C)C[C@H](NC(=O)CNC(=O)CC[C@H](NS(=O)(=O)c1ccc(Cl)c(C(F)(F)F)c1)C(=O)O)C(=O)N[C@H](C(=O)N1CCC[C@H]1CC(N)=O)C(C)C ({Benzenesulfonyl(4-Cl,3-CF3)-γGlu}-GLV[β3hP]-NH2) is ___
4.23

Fill in: pIC50 of `CC(C)C[C@H](NC(=O)CNC(=O)CC[C@H](NS(=O)(=O)c1ccc(Cl)c(C(F)(F)F)c1)C(=O)O)C(=O)N[C@H](C(N)=O)C(C)C` is ___
< 4.00

----------
# system: 72 kDa type IV collagenase (Homo sapiens)
# Sequence (P08253 whole entry): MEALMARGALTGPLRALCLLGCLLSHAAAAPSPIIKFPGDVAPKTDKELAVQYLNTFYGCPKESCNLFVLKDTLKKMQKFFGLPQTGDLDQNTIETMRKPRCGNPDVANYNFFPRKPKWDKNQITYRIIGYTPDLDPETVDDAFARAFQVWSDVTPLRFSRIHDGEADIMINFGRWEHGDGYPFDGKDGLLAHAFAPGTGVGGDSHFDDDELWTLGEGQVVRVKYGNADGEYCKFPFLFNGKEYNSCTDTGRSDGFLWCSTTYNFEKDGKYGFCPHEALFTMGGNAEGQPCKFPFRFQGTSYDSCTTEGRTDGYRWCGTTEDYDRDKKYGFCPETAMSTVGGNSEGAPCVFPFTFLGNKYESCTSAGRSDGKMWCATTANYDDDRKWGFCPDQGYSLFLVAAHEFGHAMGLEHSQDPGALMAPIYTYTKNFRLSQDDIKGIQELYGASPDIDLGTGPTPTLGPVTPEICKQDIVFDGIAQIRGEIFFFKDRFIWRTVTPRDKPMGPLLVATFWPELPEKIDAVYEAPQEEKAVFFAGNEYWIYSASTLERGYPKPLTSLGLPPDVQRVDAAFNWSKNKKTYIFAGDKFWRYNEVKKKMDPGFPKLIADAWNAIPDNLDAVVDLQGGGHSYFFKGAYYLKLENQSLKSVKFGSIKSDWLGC
# protocol_details: Inhibition of human recombinant MMP-2 ( Ile34 to Cys660 residues) using MOCAc-Pro-Leu-Gly-Leu-A2pr(Dnp)-Ala-Arg-NH2 as fluorogenic substrate preincubated for 15 mins followed by substrate addition by fluorescence based analysis
pIC50: −log10 of the molar value. *1 amine or outer side, *2 acyl side, *3 side chain or, on linkers, in order; H or OH if unused. Where a SMILES comes first, the peptide text is derived from it. [ ]: non-standard residue; d: D form. The star is where a group is joined. Benzenesulfonyl(4-Cl,3-CF3) = O=S(=O)(c1ccc(Cl)c(C(F)(F)F)c1)*; γGlu = O=C(O)[C@H](CCC(=O)[*:2])N[*:1]; β3hP = O=C(O)C[C@@H]1CCCN1
measured_quantity: pIC50

compound: CC(C)C[C@H](NC(=O)CNC(=O)CC[C@H](NS(=O)(=O)c1ccc(Cl)c(C(F)(F)F)c1)C(=O)O)C(=O)N[C@H](C(N)=O)C(C)C
measured_quantity: pIC50
measured_result: 4.35

1 = CC(C)C[C@H](NC(=O)CNC(=O)CC[C@H](NS(=O)(=O)c1ccc(Cl)c(C(F)(F)F)c1)C(=O)O)C(=O)N[C@H](C(=O)N[C@@H](C)C(N)=O)C(C)C ({Benzenesulfonyl(4-Cl,3-CF3)-γGlu}-GLVA-NH2)
2 = CSCC[C@H](NC(=O)[C@H](CC(C)C)NC(=O)CNC(=O)CC[C@H](NS(=O)(=O)c1ccc(Cl)c(C(F)(F)F)c1)C(=O)O)C(N)=O
3 = CC(C)C[C@H](NC(=O)CNC(=O)CC[C@H](NS(=O)(=O)c1ccc(Cl)c(C(F)(F)F)c1)C(=O)O)C(=O)N[C@H](C(=O)N1CCC[C@H]1CC(N)=O)C(C)C ({Benzenesulfonyl(4-Cl,3-CF3)-γGlu}-GLV[β3hP]-NH2)
Order the records by pIC50, with each subsequent value no larger than the one before. Reply: labels, ordered per the request.
3, 1, 2
(3: 4.96, 1: 4.48, 2: 4.14)

----------
# system: Macrophage metalloelastase (Homo sapiens, UniProt P39900)
# Sequence (P39900 whole entry): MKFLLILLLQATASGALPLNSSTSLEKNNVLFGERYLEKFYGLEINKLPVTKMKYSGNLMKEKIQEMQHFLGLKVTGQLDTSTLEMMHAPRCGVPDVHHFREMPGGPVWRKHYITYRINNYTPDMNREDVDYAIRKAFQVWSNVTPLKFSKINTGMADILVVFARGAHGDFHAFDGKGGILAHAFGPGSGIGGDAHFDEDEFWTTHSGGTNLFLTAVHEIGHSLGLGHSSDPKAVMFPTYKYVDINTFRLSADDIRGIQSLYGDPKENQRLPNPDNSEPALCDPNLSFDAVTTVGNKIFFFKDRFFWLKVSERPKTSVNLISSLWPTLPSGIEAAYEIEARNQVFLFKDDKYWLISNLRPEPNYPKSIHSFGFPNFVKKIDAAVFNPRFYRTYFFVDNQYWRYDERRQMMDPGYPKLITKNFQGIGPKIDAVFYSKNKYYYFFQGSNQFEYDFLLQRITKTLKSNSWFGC
# protocol_details: Inhibition of human recombinant MMP-12 (Leu17 to Cys470 residues) using MOCAc-Pro-Leu-Gly-Leu-A2pr(Dnp)-Ala-Arg-NH2 as fluorogenic substrate preincubated for 15 mins followed by substrate addition by fluorescence based analysis
*1 amine or outer side, *2 acyl side, *3 side chain or, on linkers, in order; H or OH if unused. Where a SMILES comes first, the peptide text is derived from it. The star is where a group is joined. Benzenesulfonyl(4-Cl,3-CF3) = O=S(=O)(c1ccc(Cl)c(C(F)(F)F)c1)*; γGlu = O=C(O)[C@H](CCC(=O)[*:2])N[*:1]
measured_quantity: IC50 (µM)

a = CSCC[C@H](NC(=O)[C@H](CC(C)C)NC(=O)[C@H](C)NC(=O)CC[C@H](NS(=O)(=O)c1ccc(Cl)c(C(F)(F)F)c1)C(=O)O)C(N)=O
b = CC(C)C[C@H](NC(=O)CNC(=O)CC[C@H](NS(=O)(=O)c1ccc(Cl)c(C(F)(F)F)c1)C(=O)O)C(=O)N[C@H](C(=O)N[C@@H](C)C(N)=O)C(C)C ({Benzenesulfonyl(4-Cl,3-CF3)-γGlu}-GLVA-NH2)
For this pair, a and b , which shows a numerically higher IC50? Please identify the chosen entry by its label.
a
(a: 40 µM, b: 12 µM)

----------
# system: Macrophage metalloelastase (Homo sapiens)
# protocol_details: Inhibition of human recombinant MMP-12 (Leu17 to Cys470 residues) using MOCAc-Pro-Leu-Gly-Leu-A2pr(Dnp)-Ala-Arg-NH2 as fluorogenic substrate preincubated for 15 mins followed by substrate addition by fluorescence based analysis
*1 amine or outer side, *2 acyl side, *3 side chain or, on linkers, in order; H or OH if unused. Where a SMILES comes first, the peptide text is derived from it. [ ]: non-standard residue; d: D form. The star is where a group is joined. Benzenesulfonyl(4-Cl,3-CF3) = O=S(=O)(c1ccc(Cl)c(C(F)(F)F)c1)*; γGlu = O=C(O)[C@H](CCC(=O)[*:2])N[*:1]; β3hP = O=C(O)C[C@@H]1CCCN1
measured_quantity: IC50 (µM)

compound: CSCC[C@H](NC(=O)[C@H](CC(C)C)NC(=O)CNC(=O)CC[C@H](NS(=O)(=O)c1ccc(Cl)c(C(F)(F)F)c1)C(=O)O)C(N)=O
readout_units: µM
measured_result: 20

I = CC(C)C[C@H](NC(=O)CNC(=O)CC[C@H](NS(=O)(=O)c1ccc(Cl)c(C(F)(F)F)c1)C(=O)O)C(=O)N[C@H](C(N)=O)C(C)C
II = CC(C)C[C@H](NC(=O)CNC(=O)CC[C@H](NS(=O)(=O)c1ccc(Cl)c(C(F)(F)F)c1)C(=O)O)C(=O)N[C@H](C(=O)N1CCC[C@H]1CC(N)=O)C(C)C ({Benzenesulfonyl(4-Cl,3-CF3)-γGlu}-GLV[β3hP]-NH2)
For this pair, I and II , which shows a numerically higher IC50? Please identify the chosen entry by its label.
I

----------
# system: Matrix metalloproteinase-14 (Homo sapiens)
# protocol_details: Inhibition of human recombinant C-terminal 10-His tagged MMP-14 ( Ala21 to Gly284 residues) using MOCAc-Lys-Pro-Leu-Gly-Leu-A2pr(Dnp)-Ala-Arg-NH2 as fluorogenic substrate preincubated for 15 mins followed by substrate addition by fluorescence based analysis
*1 amine or outer side, *2 acyl side, *3 side chain or, on linkers, in order; H or OH if unused. Where a SMILES comes first, the peptide text is derived from it. [ ]: non-standard residue; d: D form. The star is where a group is joined. Benzenesulfonyl(4-Cl,3-CF3) = O=S(=O)(c1ccc(Cl)c(C(F)(F)F)c1)*; γGlu = O=C(O)[C@H](CCC(=O)[*:2])N[*:1]; β3hP = O=C(O)C[C@@H]1CCCN1
measured_quantity: IC50 (µM)

Please review the following examples before continuing.
molecule: CSCC[C@H](NC(=O)[C@H](CC(C)C)NC(=O)CNC(=O)CC[C@H](NS(=O)(=O)c1ccc(Cl)c(C(F)(F)F)c1)C(=O)O)C(N)=O
system: Matrix metalloproteinase-14 (Homo sapiens)
measured_quantity: IC50
measured_result: 25

molecule: CC(C)C[C@H](NC(=O)CNC(=O)CC[C@H](NS(=O)(=O)c1ccc(Cl)c(C(F)(F)F)c1)C(=O)O)C(=O)N[C@H](C(=O)N[C@@H](C)C(N)=O)C(C)C ({Benzenesulfonyl(4-Cl,3-CF3)-γGlu}-GLVA-NH2)
system: Matrix metalloproteinase-14 (Homo sapiens)
measured_quantity: IC50
measured_result: 11

I = CC(C)C[C@H](NC(=O)CNC(=O)CC[C@H](NS(=O)(=O)c1ccc(Cl)c(C(F)(F)F)c1)C(=O)O)C(=O)N[C@H](C(N)=O)C(C)C
II = CC(C)C[C@H](NC(=O)CNC(=O)CC[C@H](NS(=O)(=O)c1ccc(Cl)c(C(F)(F)F)c1)C(=O)O)C(=O)N[C@H](C(=O)N1CCC[C@H]1CC(N)=O)C(C)C ({Benzenesulfonyl(4-Cl,3-CF3)-γGlu}-GLV[β3hP]-NH2)
For this pair, I and II , which shows a numerically higher IC50? Please identify the chosen entry by its label.
I
(I: 17 µM, II: 0.45 µM)
